Data origin, for the record: PubChem BioAssay (NCATS)

- assay_remarks: Quantitative High-Throughput drug screen in 47 multiple myeloma cell lines against the NCATS MIPE library collection: KMM1_JCRB cell viability assay (AID 1918960); note: nearly all actives have a fitted effect of over 30% in size
- condition_notes: KMM1 myeloma viability, CellTiter-Glo ATP luminescence, 48 h; series mostly up to 45.8 µM
Records with an inconclusive call do not appear. The source made the active and inactive calls. Calls come from the whole dose curve; as a rule, active = well fitted cell-killing curve with a large enough effect; inconclusive = small, poorly fitted or top-dose-only effect, or effect the other way; inactive = no such curve, though single readings can be large or run the other way.
Write down the outcome that applies. Available outcomes: active, inactive

> print(dat)
                                   molecule   group
1  Cc1ccc(NC(=O)c2ccc(CN3CCN(C)CC3)cc2)cc1Nc1nc(-c2cccnc2)cs1  active

[Q] Called result for CCOc1ccccc1N=Nc1c(C)[nH]n(-c2nc(-c3ccccc3)cs2)c1=O
[A] inactive

[Q] Recorded test call requested for C[C@H]1COC2=C1C(=O)C(=O)c1c2ccc2c1CCCC2(C)C
[A] inactive

[Q] I'd appreciate the recorded outcome for CC(C)[C@H](O)C(=O)N[C@@H](C)C(=O)N[C@@H]1C(=O)N(C)CCc2ccccc21 from this test.
[A] inactive

[Q] # fetch the recorded call for Nc1[nH]nc2nnc(-c3c(-c4ccccc4)nn4ccccc34)cc12 here
[A] active

[Q] So what was the verdict on O=c1cc(-c2ccc(O)c(O)c2)oc2cc(O)cc(O)c12 in this test?
[A] inactive

[Q] Could you check what this test reported for O=S(=O)(NCCNCC=Cc1ccc(Br)cc1)c1cccc2cnccc12 ?
[A] active

[Q] For this molecule, state the assay outcome: Cc1ccc2c(c1)c1c(n2CCc2ccc(C)nc2)CCN(C)C1
[A] inactive

[Q] How did this test come out for CC1C(=O)OC2C(O)C34C5CC(C(C)(C)C)C36C(OC(=O)C6O)OC4(C(=O)O5)C12O (centres undefined) ?
[A] inactive

[Q] Hi, sorry to bother you, what did the test record for C[C@H]1O[C@@H](n2cc(F)c(=O)[nH]c2=O)[C@H](O)[C@H]1O ?
[A] active

[Q] # lookup: test call for CC1=C(CC(=O)O)c2cc(F)ccc2C1=Cc1ccc(S(C)=O)cc1 (centres undefined)
[A] active

[Q] Outcome logged for CCC(c1ccc(O)cc1)C(CC)c1ccc(O)cc1 (centres undefined) in this assay:
[A] inactive

[Q] Query: recorded result category for CCCCC(C=O)NC(=O)C(CC(C)C)NC(=O)OCc1ccccc1 (centres undefined) in this test
[A] inactive

[Q] What outcome does the record of this test show for N[C@@H](CC(=O)N1CCn2c(nnc2C(F)(F)F)C1)Cc1cc(F)c(F)cc1F ?
[A] inactive

[Q] Name the outcome recorded for CCOC(=O)[C@H]1O[C@H]1C(=O)N[C@@H](CC(C)C)C(=O)NCCC(C)C in the assay.
[A] inactive

[Q] How was CC(C)(OCc1nn(Cc2ccccc2)c2ccccc12)C(=O)O classified in this test?
[A] inactive
